assay: Steady-state intracellular uptake in VERO-E6 cells
Type: in vitro ADME
condition: African green monkey, VERO-E6 cells; VERO-E6, 60 min incubation, 50 μM at t = 0; read-out: Kp (intracellular accumulation ratio IC/EC)
assay_metric: Kp at 1 h, 50 µM
Give the figure only, with no unit attached.

Example compounds with recorded Kp at 1 h, 50 µM:
- compound: "CCN(C[C@H]1O[C@@H](n2cc(C#Cc3cccnc3)c3c(N)ncnc32)[C@H](O)[C@@H]1O)S(=O)(=O)c1ccc(OC)c(C#N)c1 [Compound 12l]"
  recorded_value: 225
- compound: "CCN(C[C@H]1O[C@@H](n2cc(C#Cc3nc4ccccc4[nH]3)c3c(N)ncnc32)[C@H](O)[C@@H]1O)S(=O)(=O)c1ccc(OC)c(C#N)c1 [Compound 12a]"
  recorded_value: 822
- compound: "CCN(C[C@H]1O[C@@H](n2cc(C#Cc3cnc4ccccc4c3)c3c(N)ncnc32)[C@H](O)[C@@H]1O)S(=O)(=O)c1ccc(OC)c(C#N)c1 [Compound 12e]"
  recorded_value: 608

Look up Kp at 1 h, 50 µM: CCN(C[C@H]1O[C@@H](n2cc(C#Cc3ccc(N)nc3)c3c(N)ncnc32)[C@H](O)[C@@H]1O)S(=O)(=O)c1ccc(OC)c(C#N)c1 [Compound 12h]
885

Values compiled from paper PMC10398685.
